Measured Activity accompanies every entry in the list below.
- Assayed System: ATP-dependent translocase ABCB1 (Homo sapiens, UniProt P08183)
- Sequence (P08183 whole entry): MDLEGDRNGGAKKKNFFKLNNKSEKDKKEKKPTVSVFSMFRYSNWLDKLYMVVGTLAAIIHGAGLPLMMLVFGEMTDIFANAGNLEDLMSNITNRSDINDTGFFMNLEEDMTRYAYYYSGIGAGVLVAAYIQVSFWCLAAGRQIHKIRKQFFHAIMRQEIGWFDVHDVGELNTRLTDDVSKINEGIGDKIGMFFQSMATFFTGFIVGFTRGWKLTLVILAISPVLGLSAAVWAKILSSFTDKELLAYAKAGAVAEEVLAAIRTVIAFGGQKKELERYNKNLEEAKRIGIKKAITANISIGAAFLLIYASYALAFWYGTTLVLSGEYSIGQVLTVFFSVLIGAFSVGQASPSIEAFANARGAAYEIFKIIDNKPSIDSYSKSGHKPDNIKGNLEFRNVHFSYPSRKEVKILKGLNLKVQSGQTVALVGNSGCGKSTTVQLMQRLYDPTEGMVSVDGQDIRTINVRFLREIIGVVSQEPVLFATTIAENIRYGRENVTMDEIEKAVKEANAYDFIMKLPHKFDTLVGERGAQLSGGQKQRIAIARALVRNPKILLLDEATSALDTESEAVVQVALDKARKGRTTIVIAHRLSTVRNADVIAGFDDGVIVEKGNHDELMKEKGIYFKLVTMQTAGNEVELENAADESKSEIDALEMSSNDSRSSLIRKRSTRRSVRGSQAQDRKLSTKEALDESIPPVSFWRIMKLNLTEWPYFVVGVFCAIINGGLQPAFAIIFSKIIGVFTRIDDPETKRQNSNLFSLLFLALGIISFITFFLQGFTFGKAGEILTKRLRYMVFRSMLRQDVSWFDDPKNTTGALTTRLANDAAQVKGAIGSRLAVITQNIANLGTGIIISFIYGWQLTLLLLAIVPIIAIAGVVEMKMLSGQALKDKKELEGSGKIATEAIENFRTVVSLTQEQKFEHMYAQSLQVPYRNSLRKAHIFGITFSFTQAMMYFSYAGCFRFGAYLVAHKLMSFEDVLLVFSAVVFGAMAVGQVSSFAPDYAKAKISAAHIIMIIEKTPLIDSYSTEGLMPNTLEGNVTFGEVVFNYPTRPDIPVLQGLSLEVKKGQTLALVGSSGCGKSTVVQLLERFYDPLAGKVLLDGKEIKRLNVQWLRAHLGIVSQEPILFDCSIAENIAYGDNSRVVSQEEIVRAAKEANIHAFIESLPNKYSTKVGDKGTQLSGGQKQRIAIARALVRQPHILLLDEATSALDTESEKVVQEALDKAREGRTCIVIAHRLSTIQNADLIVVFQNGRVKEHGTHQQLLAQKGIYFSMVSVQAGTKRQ
- Method Summary: Inhibition of human ABCB1 expressed in mouse L5178Y cells assessed as increase in rhodamine-123 accumulation by measuring forward scatter count of cells at 20 uM pretreated for 10 mins followed by rhodamine-123 addition after 20 mins by flow cytometry (reference value: 2206)
- Assay type: cell-based
# answer = number (no unit)

[
  {
    "Molecule": "CC[C@H]1CN(C)[C@H]2Cc3c([nH]c4ccccc34)/C(=N/NC(=S)NCc3cccnc3)C[C@H]1[C@@H]2C(=O)OC",
    "Assayed System": "ATP-dependent translocase ABCB1 (Homo sapiens, UniProt P08183)",
    "Value": 2301
  },
  {
    "Molecule": "CC[C@@H]1CN(C)[C@H]2Cc3c([nH]c4ccccc34)/C(=N/N)C[C@H]1[C@@H]2C(=O)OC",
    "Assayed System": "ATP-dependent translocase ABCB1 (Homo sapiens, UniProt P08183)",
    "Value": 2172
  },
  {
    "Molecule": "CC[C@H]1CN(C)[C@H]2Cc3c(n(CCN(CC)CC)c4ccccc34)C(=O)C[C@H]1[C@@H]2C(=O)OC",
    "Assayed System": "ATP-dependent translocase ABCB1 (Homo sapiens, UniProt P08183)",
    "Value": 2440
  },
  {
    "Molecule": "COc1ccc(CCN(C)CCCC(C#N)(c2ccc(OC)c(OC)c2)C(C)C)cc1OC (configuration not stated)",
    "Assayed System": "ATP-dependent translocase ABCB1 (Homo sapiens, UniProt P08183)",
    "Value": 2611
  },
  {
    "Molecule": "CC[C@@H]1CN(C)[C@H]2Cc3c([nH]c4ccccc34)[C@@H](O)C[C@H]1[C@@H]2C(=O)OC",
    "Assayed System": "ATP-dependent translocase ABCB1 (Homo sapiens, UniProt P08183)",
    "Value": 2083
  },
  {
    "Molecule": "CC[C@@H]1CN(C)[C@H]2Cc3c([nH]c4ccccc34)C(=O)C[C@H]1[C@@H]2C(=O)OC",
    "Assayed System": "ATP-dependent translocase ABCB1 (Homo sapiens, UniProt P08183)",
    "Value": 2180
  }
]

Answer with the recorded Activity for the molecule listed here: `CC[C@H]1CN(C)[C@H]2Cc3c([nH]c4ccccc34)/C(=N/Nc3ccc(Br)cn3)C[C@H]1[C@@H]2C(=O)OC`
1947

###

- Assayed System: ATP-dependent translocase ABCB1 (Homo sapiens, UniProt P08183)
- Method Summary: Inhibition of human ABCB1 expressed in mouse L5178Y cells assessed as increase in rhodamine-123 accumulation by measuring forward scatter count of cells at 20 uM pretreated for 10 mins followed by rhodamine-123 addition after 20 mins by flow cytometry (reference value: 2206)
- Format: cell-based
Experimental Endpoint: Activity
Could you keep your reply to the number by itself?

Some entries whose results are on file:
[
  {
    "Smiles Structure": "CC[C@@H]1CN(C)[C@H]2Cc3c([nH]c4ccccc34)/C(=N/NC(N)=O)C[C@H]1[C@@H]2C(=O)OC",
    "Assayed System": "ATP-dependent translocase ABCB1 (Homo sapiens, UniProt P08183)",
    "Activity": 2389
  },
  {
    "Smiles Structure": "CC[C@H]1CN(C)[C@H]2Cc3c([nH]c4ccccc34)C(=S)C[C@H]1[C@@H]2C(=O)OC",
    "Assayed System": "ATP-dependent translocase ABCB1 (Homo sapiens, UniProt P08183)",
    "Activity": 2242
  },
  {
    "Smiles Structure": "CC[C@H]1CN(C)[C@H]2Cc3c([nH]c4ccccc34)C(=O)C[C@H]1[C@@H]2C(=O)OC",
    "Assayed System": "ATP-dependent translocase ABCB1 (Homo sapiens, UniProt P08183)",
    "Activity": 2240
  }
]

From here, focus on the item given below.
Give the reported value of Activity for this record: `CC[C@H]1CN(C)[C@H]2Cc3c(n(C(=O)c4cccc(C)c4)c4ccccc34)C(=O)C[C@H]1[C@@H]2C(=O)OC`
2449
